This listing pairs compounds with measured IC50.
Experiment: Cytotoxicity against human EPG85-257P cells after 24 hrs by SRB method
Format: functional, cell-based
Just the number please, in µM, no unit attached.

[
  {
    "cpd.smiles": "C=C(C)[C@@H]1CC[C@]2(COC(=O)[C@@H](N)CCCCN)CC[C@]3(C)[C@H](CC[C@@H]4[C@@]5(C)CC[C@H](OC(=O)[C@@H](N)CCCCN)C(C)(C)[C@@H]5CC[C@]43C)[C@@H]12",
    "IC50, µM": 4.1
  },
  {
    "cpd.smiles": "C=C(C)[C@@H]1CC[C@]2(COC(=O)[C@@H](N)CCSC)CC[C@]3(C)[C@H](CC[C@@H]4[C@@]5(C)CC[C@H](OC(=O)[C@@H](N)CCSC)C(C)(C)[C@@H]5CC[C@]43C)[C@@H]12",
    "IC50, µM": 31
  },
  {
    "cpd.smiles": "C=C(C)[C@@H]1CC[C@]2(COC(=O)[C@H](C)N)CC[C@]3(C)[C@H](CC[C@@H]4[C@@]5(C)CC[C@H](OC(=O)[C@H](C)N)C(C)(C)[C@@H]5CC[C@]43C)[C@@H]12",
    "IC50, µM": 17
  },
  {
    "cpd.smiles": "C=C(C)[C@@H]1CC[C@]2(CO)CC[C@]3(C)[C@H](CC[C@@H]4[C@@]5(C)CC[C@H](O)C(C)(C)[C@@H]5CC[C@]43C)[C@@H]12",
    "IC50, µM": 26
  },
  {
    "cpd.smiles": "C=C(C)[C@@H]1CC[C@]2(C(=O)O)CC[C@]3(C)[C@H](CC[C@@H]4[C@@]5(C)CC[C@H](OC(=O)[C@@H](N)CC)C(C)(C)[C@@H]5CC[C@]43C)[C@@H]12",
    "IC50, µM": 33
  },
  {
    "cpd.smiles": "C=C(C)[C@@H]1CC[C@]2(COC(=O)[C@H](C)N)CC[C@]3(C)[C@H](CC[C@@H]4[C@@]5(C)CC[C@H](O)C(C)(C)[C@@H]5CC[C@]43C)[C@@H]12",
    "IC50, µM": 38
  }
]

Quick check: IC50 of C=C(C)[C@@H]1CC[C@]2(C(=O)O)CC[C@]3(C)[C@H](CC[C@@H]4[C@@]5(C)CC[C@H](OC(=O)[C@H](C)N)C(C)(C)[C@@H]5CC[C@]43C)[C@@H]12 ?
48

---

Test: Aqueous solubility in DMSO solution at 1 mg
Assay type: physicochemical

[
  {
    "cpd.smiles": "C=C(C)[C@@H]1CC[C@]2(C(=O)O)CC[C@]3(C)[C@H](CC[C@@H]4[C@@]5(C)CC[C@H](O)C(C)(C)[C@@H]5CC[C@]43C)[C@@H]12",
    "solubility": "Soluble"
  },
  {
    "cpd.smiles": "C=C(C)[C@@H]1CC[C@]2(C(=O)O)CC[C@]3(C)[C@H](CC[C@@H]4[C@@]5(C)CC[C@H](OC(=O)[C@H](C)N)C(C)(C)[C@@H]5CC[C@]43C)[C@@H]12",
    "solubility": "Soluble"
  },
  {
    "cpd.smiles": "C=C(C)[C@@H]1CC[C@]2(C(=O)O)CC[C@]3(C)[C@H](CC[C@@H]4[C@@]5(C)CC[C@H](OC(=O)[C@@H](N)Cc6ccccc6)C(C)(C)[C@@H]5CC[C@]43C)[C@@H]12",
    "solubility": "Soluble"
  }
]
